Target chain: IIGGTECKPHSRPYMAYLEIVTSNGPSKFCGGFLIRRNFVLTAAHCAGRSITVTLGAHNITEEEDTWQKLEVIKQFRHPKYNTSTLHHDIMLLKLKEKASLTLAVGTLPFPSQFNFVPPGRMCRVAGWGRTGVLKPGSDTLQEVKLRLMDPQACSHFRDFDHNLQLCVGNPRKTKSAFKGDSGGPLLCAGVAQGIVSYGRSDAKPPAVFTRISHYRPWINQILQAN
pIC50: −log10 of the molar value.
recordedMetric: pIC50

Below: 3 molecules and their reported pIC50.
>  <molecule>
CCCC(C(=O)O)n1c(=O)c2ccccc2n(Cc2cn(C)c3cccc(C)c23)c1=O (stereo not drawn)

>  <pIC50>
8.40

$$$$
>  <molecule>
CCCC[C@@H](C(=O)O)n1c(=O)c2ccccc2n(Cc2cn(C)c3cccc(C)c23)c1=O

>  <pIC50>
8.70

$$$$
>  <molecule>
CC[C@H](CC(=O)O)n1c(=O)c2ccccc2n(Cc2cn(C)c3cccc(C)c23)c1=O

>  <pIC50>
8.41

$$$$

[P] CC[C@@H](C(=O)O)n1c(=O)c2ccccc2n(Cc2cn(C)c3cccc(C)c23)c1=O
[Q] Cc1cc(C)c2c(Cn3c(=O)n([C@H](C(=O)O)c4ccccc4)c(=O)c4ccccc43)nsc2c1
Q) Higher pIC50 between P and Q ? Your answer should be the label attached to the chosen record.
A) Q
(Q: 9.00, P: 8.77)
